// pEC50 lookup, one value per entry
# Tested on: THP-1 viability, CellTiter-Glo luminescence, 72 h
# Assay Comment: PubChem AID 2252
pEC50: −log10 of the molar value.

Illustrative cases are given below, each with its answer.
Compound	Measured On	pEC50
COc1ccc(NS(=O)(=O)c2cc(NC(=O)c3ccc(C)s3)ccc2N2CCOCC2)cc1	THP-1 viability, CellTiter-Glo luminescence, 72 h	4.67
O=C(Nc1ccc(-c2nc3ccccc3[nH]2)cc1)c1ccco1	THP-1 viability, CellTiter-Glo luminescence, 72 h	4.98
O=C(Nc1nnc(C(F)(F)F)s1)c1ccc(Br)s1	THP-1 viability, CellTiter-Glo luminescence, 72 h	4.65
C=CCNc1ncnc2c1[nH]c1ccc(Cl)cc12	THP-1 viability, CellTiter-Glo luminescence, 72 h	5.15
CC(=O)NC(=S)NNC(=O)c1ccc(Br)cc1	THP-1 viability, CellTiter-Glo luminescence, 72 h	4.56
C#CCOCCOCCOCCNc1nc(N2CCN(C(=O)CCCCCCCCCCNC(=O)[C@H](CCCCN)n3cc(CCO)nn3)CC2)nc(N2CCN(C(=O)CCCCCCCCCCNC(=O)[C@H](CCCN=C(N)N)n3cc(C[C@@H](C)CC)nn3)CC2)n1	THP-1 viability, CellTiter-Glo luminescence, 72 h	4.95

Sample Cn1ncnc2c(=O)n(C)c(=O)nc1-2 ; pEC50 observed: 5.86

According to the records, this compound CN(C)CCOCCOc1ccc(Cl)c2ccccc12 displays pEC50 of 4.32

In plain terms, O=C(N/N=C/c1ccc([N+](=O)[O-])o1)C1CCCC1 has a documented pEC50 of > 7.00

GET /value?item= COc1ccc(C(=O)NC(=S)NNC(=O)c2cnccn2)cc1 &field=pEC50 returns 5.53

Briefly, pEC50 measured for O=C(Nc1ccc(Cl)cc1)N1CCOC12CCC1(CC2)OCCO1 : > 7.00

* * *

# System: THP-1 viability, CellTiter-Glo luminescence, 72 h
# Assay Comment: PubChem AID 2252
Listed next: entries and their corresponding EC50.

Worked examples follow.
Compound	EC50
Cc1cccc2sc(N(CCCN(C)C)C(=O)COc3ccc(Cl)cc3)nc12	24.9 µM
NC(N)=Nc1nc(-c2ccccc2)c2cc(Cl)ccc2n1	3.77 µM
CNCCC=C1c2ccccc2CCc2ccccc21	22.5 µM
COc1cc([N+](=O)[O-])cc(/C=N/NC(=O)C(O)(c2ccccc2)c2ccccc2)c1O	25.4 µM
O=C(N/N=C/c1c[nH]c2ccccc12)c1cc2ccccc2o1	21.3 µM
c1ccc(CNc2nc(N3CCN(Cc4ccccc4)CC3)nc3ccccc23)cc1	8.41 µM
Oc1ccc(C[C@@H]2CNCCN2CCC23CC4CC(CC(C4)C2)C3)cc1	9.86 µM
CC1(C)N=C(N)N=C(N)N1c1ccc(Oc2ccc(Cl)cc2)c(Cl)c1	2.45 µM
COc1ccc(CCN2CCC(Nc3nc4ccccc4n3Cc3ccc(F)cc3)CC2)cc1	3.8 µM
O=C(CCN1CCN(c2ccccc2)CC1)N/N=C/c1ccc([N+](=O)[O-])o1	43.9 µM

Input C#CC(=O)N(c1cccc(OC)c1)C(C(=O)NC1CCCC1)c1cccs1 (stereo not drawn) . Output EC50: 0.9 µM

The reported value for COc1ccc(C[C@H]2CN3C(=NC[C@H]3Cc3ccccc3)N2CCNC(=O)c2ccc(C)c(Br)c2)cc1 in terms of EC50 is 7.83 µM

EC50 measured on O=C(CC1NCCc2ccccc21)Nc1ccc(Oc2ccccc2)cc1 (stereo not drawn) = 14.3 µM

* * *

# System: THP-1 viability, CellTiter-Glo luminescence, 72 h
# Assay Comment: PubChem AID 2252
pEC50: −log10 of the molar value.
Value Kind: pEC50

Sample records with pEC50:
Compound	pEC50
COc1ccc(OCc2n(CC(=O)OC3CC(C)CCC3C(C)C)c3ccccc3[n+]2C)cc1 (stereo not drawn)	5.79
O=c1[nH]c(=S)ccn1C1OC(CO)C(O)C1O (stereo not drawn)	4.79
C/C(=N\Nc1ccc2nncn2n1)c1ccccn1	5.21

Query CCn1cc(C(=O)NCc2ccc3c(c2)OCO3)c(=O)c2cc(F)c(N3CCN(C(=O)c4ccco4)CC3)cc21 on THP-1 viability, CellTiter-Glo luminescence, 72 h; pEC50 returned: 4.70

The reported pEC50 value, THP-1 viability, CellTiter-Glo luminescence, 72 h, for COc1cc(Br)cc(/C=N/c2ncn[nH]2)c1O reads 4.30

Lab note: compound Cc1ccc2c(c1)C1CN(C)CCC1N2Sc1ccccc1[N+](=O)[O-] (stereo not drawn) tested on THP-1 viability, CellTiter-Glo luminescence, 72 h; recorded pEC50 was 4.68

Value sought: pEC50, system THP-1 viability, CellTiter-Glo luminescence, 72 h, item Cc1cccc(Nc2cc(C)c3c(O)cccc3n2)c1C . Result: 5.27

THP-1 viability, CellTiter-Glo luminescence, 72 h data for O=Cc1c(Cl)nc2ccccn2c1=O ; its pEC50: 4.66

Test item COc1ccc(CNC(=O)CCC(=O)N2C[C@H]3C[C@H](C2)c2cccc(=O)n2C3)cc1 ; THP-1 viability, CellTiter-Glo luminescence, 72 h; reported pEC50 was > 7.00

GET /values?item= CCOc1cc(CNC(C)(C)CO)cc(Br)c1OCc1ccc(Cl)cc1Cl &system= THP-1 viability, CellTiter-Glo luminescence, 72 h returns pEC50: 5.26

Field pEC50 (system: THP-1 viability, CellTiter-Glo luminescence, 72 h) for entry N#Cc1ccc(C2=NC(C(F)(F)F)(C(F)(F)F)c3c(n(Cc4ccco4)c(=O)[nH]c3=O)N2)cc1 = 4.51

THP-1 viability, CellTiter-Glo luminescence, 72 h assay, compound O=C(Nc1ccncc1)c1cc(-c2ccccn2)nc2ccccc12 , recorded pEC50 = 4.63

Kindly note: THP-1 viability, CellTiter-Glo luminescence, 72 h, Cc1ccc(NC2=C(Cl)C(=O)OC2OC(=O)c2ccco2)c(C)c1 (stereo not drawn) , pEC50 value reported: 4.55

* * *

# Tested on: THP-1 viability, CellTiter-Glo luminescence, 72 h
# Assay Comment: PubChem AID 2252
pEC50: −log10 of the molar value.
Value Kind: pEC50

The examples below pair each entry with its known result.
Compound	pEC50
Oc1ccccc1N=Cc1c(O)ccc2oc3c(c12)CCCC3	4.34
CC(C)N=C(N)N=C(N)Nc1ccc(Cl)cc1	4.45
O=C(NCCCN1CCOCC1)c1sc2cc(Cl)ccc2c1Cl	4.45

# pEC50 (compound: O=C(N/N=C/c1cc([N+](=O)[O-])ccc1O)c1cccc2cc[nH]c12 ) is 5.72

The reported pEC50 of the compound Cc1[nH]nc2c1C(C1CC=CCC1)C(C#N)=C(N)O2 (configuration not stated) was 4.86

Form field pEC50, entry COc1ccc(CNCCc2ccc(Cl)cc2)cc1OCc1ccccc1 : 4.61

get_value(item= Cc1nn(-c2ccccc2)c(C)c1/C=N/n1c(-c2ccc(C(C)(C)C)cc2)n[nH]c1=S , readout=pEC50) returns 4.49

Per the records, this compound ( CC1CCC(C(C)C)C(OC(=O)C[n+]2cc(-c3ccc(Cl)cc3)n3c2CCC3)C1 (configuration not stated) ) has pEC50 equal to 4.78

* * *

# Test system: THP-1 viability, CellTiter-Glo luminescence, 72 h
# Assay Comment: PubChem AID 2252
Value Kind: EC50

Completed entries (count: 4):
Smiles Structure	Measured On	Result
CCc1c(C)nc2cc(-c3cc(OC)cc(OC)c3)nn2c1N1CCCC1	THP-1 viability, CellTiter-Glo luminescence, 72 h	31 µM
c1ccc2c(c1)CCc1ccccc1C2=C1CCNCC1	THP-1 viability, CellTiter-Glo luminescence, 72 h	25.2 µM
[O-][n+]1cccc2c(Br)cc(Br)c(O)c21	THP-1 viability, CellTiter-Glo luminescence, 72 h	24.4 µM
CCCCNCCCOc1cccc(Cl)c1Cl	THP-1 viability, CellTiter-Glo luminescence, 72 h	28.2 µM

Would you kindly look at the next entry?
Lab note: Cc1[nH]c2ccccc2c1/C=C/c1nc2ccccc2c(=O)[nH]1 gave EC50 of 14 µM

* * *

Listing: EC50 of selected molecules
# System: THP-1 viability, CellTiter-Glo luminescence, 72 h
# Assay Comment: PubChem AID 2252

According to the records, this molecule N/C(=N\OC(=O)N1CCOCC1)c1ccccc1 displays EC50 of 15.5 µM

Entry under test: Fc1ccc(Nc2nc(NCc3ccco3)c3ccccc3n2)cc1 . Its EC50 was 5.9 µM

EC50 recorded for this molecule, CN(C)c1ccc(O)c2c1CC1CC3[C@@H](N(C)C)C(=O)C(C(N)=O)=C(O)[C@]3(O)C(=O)C1=C2O (stereo not given in full) , is 30.3 µM

Value of EC50 reported for the molecule Cc1cc(N2CCC(C)CC2)nc(NCc2ccccc2)n1 is 6.23 µM

Lab note: CN1/C(=C\C=C\C2=[N+](C)c3ccc4ccccc4c3C2(C)C)C(C)(C)c2ccccc21 gave EC50 of 0.2 µM
